- assayed.system: T1, Histidine-tagged canine PD-1 protein (canine)
- T1 sequence: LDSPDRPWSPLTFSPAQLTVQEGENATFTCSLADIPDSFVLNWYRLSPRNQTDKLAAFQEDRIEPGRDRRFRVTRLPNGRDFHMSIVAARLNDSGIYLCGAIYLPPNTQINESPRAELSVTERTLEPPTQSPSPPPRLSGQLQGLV
- assay.details: SPR (Biacore), dPD-1-His amine-coupled to CM5 chip, antibody injected, 1:1 Langmuir fit
Classify on kon using bottom bin (below 500000 M⁻¹ s⁻¹), middle bin (500000 M⁻¹ s⁻¹ to below 600000 M⁻¹ s⁻¹), top bin (600000 M⁻¹ s⁻¹ or more)

Solved entries:
1. 1B9-H1K1-IgG4 (antibody, V domains shown) VH: EVQLVQSGAEVKKPGASVKVSCKTSGYTFTSFWMNWVRLAPGAGLDWIGRVDPYDSETHYNQKFKDRVILTVDTSTSTAYMELSSLRAGDIAVYYCATQFGFSWLAYWGQGTLVTVSA VL: EIVMTQSPGSLAGSAGESVSINCKSSQSLLYSSNQKNYLAWYQQKPGESPKLLIYWASTRESGVPDRFSGSGSGTDFTLTINNLQAEDVGVYYCQQYYSNPYTFGQGTKLEIK = bottom bin
2. 1D8-H1K1-dIgG4 (antibody, V domains shown) VH: EVQLVESGGDLVKPVGSLRLSCVASGFTFNNFGMSWVRQAPGKGLQWVATLSSGSSYTYYSDSVKGRFTISRDNAKNTLYLQMNSLRAEDTAMYYCTRGESRFAYWGQGTLVTVSA VL: GVVITQDPLSLAVTPGELVTISCRSSKSLLYKDGKTYLNWYLQKPGQTPRLLIYLMSTRASGVSDRFSGSGSGTDFTLKISRVEAEDVGVYYCQQLIEYPLTFGAGTKVELK = top bin
3. 1D8-H1K2-dIgG4 (antibody, V domains shown) VH: EVQLVESGGDLVKPVGSLRLSCVASGFTFNNFGMSWVRQAPGKGLQWVATLSSGSSYTYYSDSVKGRFTISRDNAKNTLYLQMNSLRAEDTAMYYCTRGESRFAYWGQGTLVTVSA VL: GVVITQDPLSLAVTPGELVTISCRSSKSLLYKDGKTYLNWFLQKPGQTPRLLIYLMSTRASGVSDRFSGSGSGTDFTLKISRVEAEDVGVYYCQQLIEYPLTFGAGTKVELK = middle bin
4. 4A7-mHvKv-dIgG4 (antibody, V domains shown) VH: EVQLVESGGDLVKPGGSLKLSCVASGFPFSNFGMSWVRQTPDKRLEWVATISSGSSYSYYSDSVKGRFTISRDNAKNTLFLQMNSLKSEDTAIFYCARGESRFAYWGQGTLVTVSA VL: DVVITQDELSNPVTSGESVSISCRSNKSLLYEDGQTYLNWFLQRPGQSPQLLIYLMSTRASGVSDRFSGSGSGTDFTLEISEVRAEDVGVYYCQQLIEYPLTFGAGTKLELKR = middle bin

### Prompt Place this binder in its band: 1B9-H1K2-IgG4 (antibody, V domains shown) VH: EVQLVQSGAEVKKPGASVKVSCKTSGYTFTSFWMNWVRLAPGAGLDWIGRVDPYDSETHYNQKFKDRVILTVDTSTSTAYMELSSLRAGDIAVYYCATQFGFSWLAYWGQGTLVTVSA VL: DIVMTQSPGSLAVSAGESVSINCKSSQSLLYSSNQKNYLAWYQQKPGESPKLLIYWASTRESGVPDRFSGSGSGTDFTLTINNVQAEDVGVYYCQQYYSNPYTFGQGTKLEIK
### Response bottom bin

### Prompt Exercise: read the entry 1B9-H2K2-IgG4 (antibody, V domains shown) VH: EVQLVQSGAEVKKPGASVKVSCKASGYTFTSFWMNWVRLAPGAGLEWIGRVDPYDSETHYNQKFKDRAILTVDTSTSTAYMELSSLRAGDIAVYYCATQFGFSWLAYWGQGTLVTVSA VL: DIVMTQSPGSLAVSAGESVSINCKSSQSLLYSSNQKNYLAWYQQKPGESPKLLIYWASTRESGVPDRFSGSGSGTDFTLTINNVQAEDVGVYYCQQYYSNPYTFGQGTKLEIK and state which class it falls under.
### Response middle bin

### Prompt Just checking, what class would you give 1D8-H2K1-dIgG4 (antibody, V domains shown) VH: EVQLVESGGDLVKPVGSLRLSCVASGFTFNNFGMSWVRQAPGKGLEWVATLSSGSSYTYYSDSVKGRFTISRDNAKNTLYLQMNSLRAEDTAMYYCTRGESRFAYWGQGTLVTVSA VL: GVVITQDPLSLAVTPGELVTISCRSSKSLLYKDGKTYLNWYLQKPGQTPRLLIYLMSTRASGVSDRFSGSGSGTDFTLKISRVEAEDVGVYYCQQLIEYPLTFGAGTKVELK here?
### Response top bin

Sourced from patent US20220324978A1
